Below is a list of entries, each paired with its recorded Ki value.
# Tested Target: UniProt P56718
# Assay: Rat orexin 1 receptor radioligand binding
# Assay Setup: rat orexin 1 receptor radioligand binding; averages of 2-20 runs; read-out: rOX1 Ki
Give a bare numeral; the unit nM is implied.

C[C@H]1[C@H](Nc2cnc(C(F)(F)F)cn2)CCCN1C(=O)c1ccc(F)cc1-c1ncccn1 (relative stereo)    16

Req: Return reported Ki; argument: "COc1ccc(-n2nccn2)c(C(=O)N2CCC[C@@H](Nc3ncc(C(F)(F)F)cn3)[C@@H]2C)c1"
Resp: 11

Req: # get_value(readout='Ki', item= "Cc1cccc(C(=O)N2CCC[C@@H](Oc3ccc(C(F)(F)F)cn3)[C@@H]2C)c1-n1nccn1" )
Resp: 28

Req: State the recorded Ki for this entry: "Cc1cnc(C(=O)N2CCC[C@@H](Nc3ccc(Cl)cn3)[C@@H]2C)c(-c2ncco2)c1"
Resp: 41

Req: Can you look up the measured Ki of C[C@H]1[C@H](Nc2ncc(C(F)(F)F)cn2)CCCN1C(=O)c1ccc(F)cc1-c1ncco1 (relative stereo) for me?
Resp: 411

Req: Look up Ki: "Cc1cccc(C(=O)N2CCC[C@@H](Oc3ncc(C(F)(F)F)cn3)[C@@H]2C)c1-c1ncccn1"
Resp: 30

Req: Can you look up the measured Ki of "C[C@H]1[C@H](Oc2ccc(Cl)cn2)CCCN1C(=O)c1ncccc1-c1ncccn1" for me?
Resp: 26
